Target: Bifunctional dihydrofolate reductase-thymidylate synthase (Toxoplasma gondii)
Sequence (Q07422 whole entry): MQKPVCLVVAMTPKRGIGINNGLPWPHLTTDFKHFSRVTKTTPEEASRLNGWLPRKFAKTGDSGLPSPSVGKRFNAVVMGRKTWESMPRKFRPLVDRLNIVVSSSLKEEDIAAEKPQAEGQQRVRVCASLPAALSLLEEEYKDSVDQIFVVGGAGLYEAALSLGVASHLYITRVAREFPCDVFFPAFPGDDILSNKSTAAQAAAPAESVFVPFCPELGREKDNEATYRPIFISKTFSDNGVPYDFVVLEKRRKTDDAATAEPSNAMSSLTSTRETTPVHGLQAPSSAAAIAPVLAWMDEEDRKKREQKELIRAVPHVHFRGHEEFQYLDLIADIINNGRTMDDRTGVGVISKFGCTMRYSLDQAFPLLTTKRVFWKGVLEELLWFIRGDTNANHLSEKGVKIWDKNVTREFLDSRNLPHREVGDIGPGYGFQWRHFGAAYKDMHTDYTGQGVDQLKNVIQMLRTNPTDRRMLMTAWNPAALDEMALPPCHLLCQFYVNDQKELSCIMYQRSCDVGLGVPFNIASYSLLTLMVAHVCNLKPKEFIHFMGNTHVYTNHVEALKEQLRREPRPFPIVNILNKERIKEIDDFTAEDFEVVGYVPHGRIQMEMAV
Assay: Inhibition of Toxoplasma gondii dihydrofolate reductase (DHFR)
observed_property: IC50 (µM)
# output: bare number, implied unit µM

Quick check: IC50 of CCC(Cc1coc2nc(N)cc(N)c12)c1ccc(C(=O)NC(CCC(=O)O)C(=O)O)cc1 (stereo unspecified) ? 1.1

Numbers sourced from ChEMBL document CHEMBL1135938.
